Assign pIC50 to each entry below.
- target.or.system: GMPPNP-bound KRAS G12C protein and cRAF RAS-binding domain (cRAF-RBD) (Homo sapiens, UniProt P01116, G12C)
- Construct: made in house; host or cells: E. coli
- Sequence (P01116 with tags, fused parts or gaps isoform P01116-2 G12C): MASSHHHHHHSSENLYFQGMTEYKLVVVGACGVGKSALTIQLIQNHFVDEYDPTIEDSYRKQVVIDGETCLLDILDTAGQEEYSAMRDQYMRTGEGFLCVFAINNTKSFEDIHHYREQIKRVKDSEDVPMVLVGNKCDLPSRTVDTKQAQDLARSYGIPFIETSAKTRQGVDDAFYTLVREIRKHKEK
- assay.method.text: Inhibitory activity on interaction between KRAS G12C and cRAF (Alpha technology)
- Format: biochemical
- assay.context: GMPPNP-bound KRAS G12C incubated with compound at 25° C. for 1 hour, then cRAF-RBD, Alpha signal; read-out: IC50
Answers are plain numbers, as −log10 of the molar value.

Take a look at these entries with their results.
Hello, please tell me recorded pIC50 for this one: CO[C@H]1CC[C@H](NC/C=C/C(=O)Nc2ccc(C(=O)c3ccc4c(-c5c(O)cccc5F)cccn34)cc2C#N)CC1
6.77

Recall and state the measured pIC50 for CO[C@H]1CC[C@H](NC/C=C/C(=O)Nc2ccc(C(=O)Nc3cccc(-c4cc5nc6n(c5cc4C(F)(F)F)CCC6)n3)cc2C#N)CC1 .
7.51

Further cases:
Name the recorded pIC50 of the compound listed here: Cn1cnc2cc(-c3cccn4c(C(=O)c5ccc(NC(=O)/C=C/[C@@H]6CCCN6)c(C#N)c5)ccc34)c(C(F)(F)F)cc21
7.21

---

- target.or.system: GMPPNP-bound KRAS G12C protein and cRAF RAS-binding domain (cRAF-RBD) (Homo sapiens, UniProt P01116, G12C)
- Construct: made in house; host or cells: E. coli
- assay.method.text: Inhibitory activity on interaction between KRAS G12C and cRAF (Alpha technology)
- Assay type: biochemical
- assay.context: GMPPNP-bound KRAS G12C incubated with compound at 25° C. for 1 hour, then cRAF-RBD, Alpha signal; read-out: IC50
pIC50: −log10 of the molar value.
Mark MET for reported pIC50 of 7 or greater; mark NOT MET for anything smaller.

Use the examples below as a reference point.
Quick check: does Cc1cc2c(cc1-c1cccn3c(C(=O)c4cc(F)c(NC(=O)/C=C/CNC(C)(C)C)c(F)c4)ccc13)ncn2C [Example 72] have pIC50 greater than or equal to 7?
MET

Exam item: decide whether the reported pIC50 for Cn1cnc2cc(-c3cccn4c(C(=O)c5cc(F)c(NC(=O)/C=C/CNC(C)(C)C)c(F)c5)ccc34)c(C(F)(F)F)cc21 [Example 49] is at least 7.
MET

Next:
Hi, just wondering whether CO[C@H]1CC[C@H](NC/C=C/C(=O)Nc2ccc(C(=O)c3c[nH]c4c(-c5cc6ncn(C)c6cc5C(F)(F)F)cc(Cl)cc34)cc2C#N)CC1 [Example 47] shows pIC50 of 7 or higher.
NOT MET

Reported pIC50 reaches at least 7 for CO[C@H]1CC[C@H](NC/C=C/C(=O)Nc2c(F)cc(C(=O)c3ccc4c(-c5cc6ncn(C)c6cc5C(F)(F)F)cccn34)cc2F)CC1 [Example 70] ?
MET

---

Answer each item with its documented pIC50.
- target.or.system: GMPPNP-bound KRAS G12C protein and cRAF RAS-binding domain (cRAF-RBD) (Homo sapiens, UniProt P01116, G12C)
- Construct: made in house; host or cells: E. coli
- assay.method.text: Inhibitory activity on interaction between KRAS G12C and cRAF (Alpha technology)
- Type: biochemical
- assay.context: GMPPNP-bound KRAS G12C incubated with compound at 25° C. for 1 hour, then cRAF-RBD, Alpha signal; read-out: IC50
Give bare numbers, as −log10 of the molar value.

Hello, please tell me recorded pIC50 for this one: CO[C@H]1CC[C@H](NC/C=C/C(=O)Nc2ccc(C(=O)Nc3cccc(-c4cc5nc6n(c5cc4C)CCC6)n3)cc2C#N)CC1 [Example 3]
7.30

Please give the documented pIC50 of C=CC(=O)Nc1ccc(C(=O)Nc2cccc(-c3cc4nc(COC)n(C)c4cc3C(F)(F)F)c2)cc1C#N [Comparative example 2, reference compound]
4.82

Dear colleague, please send me the reported pIC50 for CO[C@H]1CC[C@H](NC/C=C/C(=O)Nc2ccc(C(=O)c3ccc4c(-c5cc6ncn(C)c6cc5C(F)F)cccn34)cc2C#N)CC1 [Example 36] when you can.
7.64

For Cn1cnc2cc(-c3cccn4c(C(=O)c5cc(F)c(NC(=O)/C=C/CNC(C)(C)C)c(F)c5)cnc34)c(C(F)(F)F)cc21 [Example 67] , write its pIC50.
7.20

Return the recorded pIC50 value; entry: CO[C@H]1CC[C@H](NC/C=C/C(=O)Nc2ccc(C(=O)c3ccc4c(-c5ccccc5Cl)cccn34)cc2C#N)CC1 [Example 45]
6.49

State its pIC50: CCN(CC)[C@H]1CC[C@H](NC/C=C/C(=O)Nc2ccc(C(=O)Nc3cccc(-c4cc5nc(C)n(C)c5cc4Cl)c3)cc2F)CC1 [Example 13]
6.39

Quickly give me recorded pIC50 for CO[C@H]1CC[C@H](NC/C=C/C(=O)Nc2ccc(C(=O)c3ccc4c(-c5cc6nn(C)cc6cc5C)cccn34)cc2C#N)CC1 [Example 75]
6.82

Specify pIC50 for COCc1nc2cc(-c3cccc(NC(=O)c4ccc(NC(=O)/C=C/CNC5CCC5)c(C#N)c4)c3)c(C(F)(F)F)cc2n1C [Example 26] and stop.
6.38

Indicate its recorded pIC50; the molecule in question is CO[C@H]1CC[C@H](NC/C=C/C(=O)Nc2ccc(C(=O)Nc3cc(F)c(F)c(-c4cc5ncn(C)c5cc4C)c3)cc2C#N)CC1 [Example 18]
6.85

Please report pIC50 for the following molecule: CO[C@H]1CC[C@H](NC/C=C/C(=O)Nc2ccc(C(=O)c3cc(Cl)c4c(-c5cc6ncn(C)c6cc5C)cccn34)cc2C#N)CC1 [Example 65]
6.85

Batch: pIC50 for all items listed.
1. CCc1nc2cc(-c3cccn4c(C(=O)c5ccc(NC(=O)/C=C/CN[C@H]6CC[C@H](OC)CC6)c(C#N)c5)ccc34)c(C(F)(F)F)cc2n1C [Example 33]
2. CO[C@H]1CC[C@H](NC/C=C/C(=O)Nc2ccc(C(=O)Nc3cccc(-c4cc5ncsc5cc4C)c3)cc2C#N)CC1 [Example 16]

1: 7.35; 2: 6.15
